- Test system: UM-UC-9 engineered cells
- Assay explanation: Cell proliferation / short-term viability assay, CellTiter-Glo 144 h
- Type: cell-based, human
- Protocol conditions: listed as 115a, read-out: CTGlo 144 h UMUC9.5, G150
Endpoint name: pIC50
The scale used: pIC50 is minus the common logarithm of the concentration in molar units.

For the molecule COc1cc(-c2cc(C(=O)N3CCC(C(=O)NC(C)c4cccc(Cl)c4)CC3)n[nH]2)c(Cl)cn1 (single isomer, unassigned) , what pIC50 is on record?
5.88

---

- Test system: His6-TEV-PPARγ-(234-505) (Homo sapiens)
- Construct: The His6-TEV-PPARγ-(234-505) protein for assay was expressed and purified; TEV cleavage site (N); made in house
- Assay explanation: TR-FRET Assay to Measure Co-R Peptide Recruitment to PPARγ
- Type: biochemical
- Protocol conditions: Co-R peptide (SMRT-ID2) recruitment; top final concentration 20 μM; read-out: TR-FRET i-Ag; AC50
Reported log10 AC50 by item:
# log10 transformed; quantity=AC50; unit=nM

Previously resolved entries follow.
COc1cc(-c2cc(C(=O)N3CCC(C(=O)N[C@H]4CC[C@@](O)(C(F)(F)F)CC4)CC3)n[nH]2)c(Cl)cn1    1.51
COc1cc(-c2cc(C(=O)N3CCC(C(=O)NCc4ccc5[nH]c(C)c(C)c5c4)CC3)n[nH]2)c(F)cn1    0.95
COc1cc(-c2cc(C(=O)N3CC[C@H](C(=O)NCc4ncc(N5CC(C)NC(C)C5)cc4Cl)CC34CC4)n[nH]2)c(F)cn1 (stereo partly drawn)    1.08
COc1cc(-c2cc(C(=O)N3CCC(C(=O)NCc4ncccc4Cl)CC3)n[nH]2)c(Cl)cn1    1.93
COc1cc(-c2cc(C(=O)N3CCC(C(=O)NC4CCC(O)(C(F)(F)F)CC4)CC3(C)C)n[nH]2)c(F)cn1 (single isomer, unassigned) [Example 407-B]    3.23

Here is another compound to look at.
Consider the compound shown here: Cc1cc(-c2cc(C(=O)N3CCC(C(=O)NC4CCC(O)(C(F)(F)F)CC4)CC34CC4)n[nH]2)ncn1 (single isomer, unassigned) [Example 339-A] What is its recorded log10 AC50?
2.68

---

AC50 reference
- Test system: His6-TEV-PPARγ-(234-505) (Homo sapiens)
- Construct: The His6-TEV-PPARγ-(234-505) protein for assay was expressed and purified; TEV cleavage site (N); made in house
- Sequence (P37231 234-505): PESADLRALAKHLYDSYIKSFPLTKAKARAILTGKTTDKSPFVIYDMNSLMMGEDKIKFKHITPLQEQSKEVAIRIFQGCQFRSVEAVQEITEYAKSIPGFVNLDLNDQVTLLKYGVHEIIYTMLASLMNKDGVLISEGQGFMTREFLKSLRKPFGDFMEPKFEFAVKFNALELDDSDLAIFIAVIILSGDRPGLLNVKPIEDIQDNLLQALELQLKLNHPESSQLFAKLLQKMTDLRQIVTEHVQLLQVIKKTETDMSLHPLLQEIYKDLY
- Assay explanation: TR-FRET Assay to Measure Co-R Peptide Recruitment to PPARγ
- Assay type: biochemical
- Protocol conditions: Co-R peptide (SMRT-ID2) recruitment; top final concentration 20 μM; read-out: TR-FRET i-Ag; AC50
// return numeric value only (unit: nM, not printed)

Consider the following illustrative entries.
CCO[C@]1(C(F)(F)F)CC[C@@H](NC(=O)[C@H]2CCN(C(=O)c3cc(-c4cc(OC)ncc4F)[nH]n3)C3(CC3)C2)CC1 (single isomer, unassigned)    2.5
COc1cc(-c2cc(C(=O)N3CCC(C(=O)NCc4ccc(C(F)(F)F)nc4)CC3)n[nH]2)c(Cl)cn1    344
COc1cc(-c2cc(C(=O)N3CCC(C(=O)NC4CCN(c5ccnc6[nH]ncc56)C4)CC34CC4)n[nH]2)c(F)cn1 (mixture of isomers)    1.5

Query (compound): COc1cc(-c2cc(C(=O)N3CCC(C(=O)NC4CCN(c5ccccc5F)C4)CC3)n[nH]2)c(Cl)cn1 (racemic) ; field requested: AC50
18.5

Record request: AC50 value, item COc1cc(-c2cc(C(=O)N3CCC(C(=O)NCc4ncccc4C(F)(F)F)CC3)n[nH]2)c(Cl)cn1
75.9

Any idea what AC50 was measured for COc1cc(-c2cc(C(=O)N3CCC(C(=O)NC4CCC(O)(C(F)(F)F)CC4)CC3(C)C)n[nH]2)c(F)cn1 (single isomer, unassigned) [Example 407-A] ?
16

Can you share its AC50? I mean this compound: COc1cc(-c2cc(C(=O)N3CC[C@H](C(=O)Nc4cnn5ccc(C#N)nc45)CC34CC4)n[nH]2)c(F)cn1
0.7

Recorded AC50 for COc1cc(-c2cc(C(=O)N3CCC(C(=O)NCc4ncc(N5CC6CC5CN6)cc4Cl)CC34CC4)n[nH]2)c(F)cn1 (mixture of isomers) , please?
14.1
